These entries and their values trace back to paper PMC8298264.

- Test system: human HL60 cells
- protocol: SWATH-MS proteomics, differential protein representation, akirin2 KO vs WT HL60 cells
- Type: cell-based
- condition-context: KO vs WT HL60 cells; sheet "Under-represented in KO"
property-name: Fold Change
No unit in the answer, please; the number alone is enough.

molecule sp¦Q9BTT0¦AN32E_HUMAN (protein, UniProt Q9BTT0 1-268, looked up) Acidic leucine-rich nuclear …: MEMKKKINLELRNRSPEEVTELVLDNCLCVNGEIEGLNDTFKELEFLSMANVELSSLARLPSLNKLRKLELSDNIISGGLEVLAEKCPNLTYLNLSGNKIKDLSTVEALQNLKNLKSLDLFNCEITNLEDYRESIFELLQQITYLDGFDQEDNEAPDSEEEDDEDGDEDDEEEEENEAGPPEGYEEEEEEEEEEDEDEDEDEDEAGSELGEGEEEVGLSYLMKEEIQDEEDDDDYVEEGEEEEEEEEGGLRGEKRKRDAEDDGEEEDD , Fold Change observed: 0.5286
